target_or_test_system: Nuclear receptor subfamily 5 group A member 2 (Homo sapiens) (UniProt O00482)
Sequence (O00482 whole entry, looked up): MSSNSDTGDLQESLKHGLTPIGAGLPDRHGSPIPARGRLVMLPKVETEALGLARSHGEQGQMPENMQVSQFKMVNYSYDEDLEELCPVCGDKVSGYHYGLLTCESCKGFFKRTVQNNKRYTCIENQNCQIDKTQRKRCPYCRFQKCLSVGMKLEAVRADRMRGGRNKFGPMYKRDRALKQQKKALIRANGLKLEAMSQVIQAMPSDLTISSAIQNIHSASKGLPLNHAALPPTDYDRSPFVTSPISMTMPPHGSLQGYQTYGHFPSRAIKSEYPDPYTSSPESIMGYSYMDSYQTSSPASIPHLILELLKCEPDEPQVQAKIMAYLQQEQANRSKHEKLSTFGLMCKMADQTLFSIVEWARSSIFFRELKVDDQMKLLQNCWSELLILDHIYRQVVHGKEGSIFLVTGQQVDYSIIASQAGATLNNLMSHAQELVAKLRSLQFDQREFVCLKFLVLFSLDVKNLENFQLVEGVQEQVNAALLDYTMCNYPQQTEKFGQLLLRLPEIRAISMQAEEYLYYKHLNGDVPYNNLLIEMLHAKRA
protocol: concentration-dependent NR5A2 reporter suppression – cell-based, luminescence, late stage, dose response (AID 651976)
condition_info: cell-based LRH-1 luciferase reporter, inverse agonist
Activity calls are given as the source filed them. How the calls were made is not given here.
recorded_metric: IC50

Answered cases to consult:
1. COc1ccc(NC(=O)CN2C(=O)NC3(CCCC3)C2=O)cc1: > 35.9 µM (inactive)
2. COC(=O)c1ccc(CNC(=O)COC(=O)c2cc(Cl)nc(Cl)c2)cc1: 3.04 µM
3. Cc1nn(CC(=O)Nc2ccc3c(c2)OCCO3)c(C)c1[N+](=O)[O-]: > 35.9 µM (inactive)
4. COc1ccc(NC(=O)COC(=O)c2c(-c3ccccc3)noc2C)cc1: 0.677 µM
5. Cc1ccc(NC(=O)COC(=O)c2cc(=O)c3ccccc3o2)c(Br)c1: > 35.9 µM (inactive)

Dear colleague, could you send me IC50 for each of the items below? Thanks.
1. CCOc1ccc(OCCC(=O)OCC(=O)Nc2ccc3c(c2)OCCO3)cc1
2. O=C(COC(=O)c1ccc[n+]([O-])c1)Nc1ccc([N+](=O)[O-])cc1Cl
3. CCc1cc(=O)[nH]c(SCC(=O)Nc2ccc3c(c2)OCCO3)n1
4. COCCn1c(C)cc(/C=C(\C#N)C(=O)OCC(=O)Nc2ccc(S(N)(=O)=O)cc2)c1C
5. N#CCSc1ccccc1NC(=O)CN1C(=O)C2CC=CCC2C1=O (centres undefined)
6. Cc1cc(Br)ccc1NC(=O)CSc1nnc(CN2CCOCC2)n1C
7. Cc1ccc2cccc(OCC(=O)NCCC3=CCCCC3)c2n1
8. COc1ccc(CC(NC(C)=O)C(=O)NC2CCN(c3nnnn3-c3ccccc3)CC2)cc1 (centres undefined)

1. > 35.9 µM (inactive)
2. 7.19 µM
3. > 35.9 µM (inactive)
4. > 35.9 µM (inactive)
5. inactive
6. 7.86 µM
7. 1.83 µM
8. 0.779 µM

Dear colleague, could you send me IC50 for each of the items below? Thanks.
1. O=C(CN1C(=O)CCC1=O)Nc1ccc(Br)cc1
2. CCOc1ccc(OCCN2C(=O)NC(Cc3c[nH]c4ccccc34)C2=O)cc1 (centres undefined)

1: 2.25 µM; 2: > 35.9 µM (inactive)

Dear colleague, could you send me IC50 for each of the items below? Thanks.
1. COC(=O)c1ccc(NC(=O)CSc2nc3ncccc3[nH]2)cc1
2. CCOc1ccc(NC(=O)CSc2nc3[nH]ncc3c(=O)[nH]2)cc1
3. CCCc1nnc(SCC(=O)Nc2ccc(C(=O)OCC)cc2)o1
4. CCn1c(SCC(=O)Nc2ccc(Cl)cc2)nnc1C1CC1

["> 35.9 µM (inactive)", "1.13 µM", "> 35.9 µM (inactive)", "> 35.9 µM (inactive)"]

* * *

target_or_test_system: Nuclear receptor subfamily 5 group A member 2 (Homo sapiens)
protocol: concentration-dependent NR5A2 reporter suppression – cell-based, luminescence, late stage, dose response (AID 651976)
condition_info: cell-based LRH-1 luciferase reporter, inverse agonist
The source made the active and inactive calls. No rule for the calls is given here.
Kindly supply the reported IC50 values for the records listed here.

1) CC1SC(C)C(=O)N(CC(=O)Nc2ccc3c(c2)OCO3)C1=O (stereo not drawn): > 35.9 µM (inactive)

Dear colleague, could you send me IC50 for each of the items below? Thanks.
1. COc1ccc(CCNC(=O)COC(=O)c2cc(Cl)nc(Cl)c2)cc1
2. CC(=O)Nc1ncc(Cc2cc(Cl)ccc2Cl)s1
3. O=C(COC(=O)CCN1C(=O)C2CC=CCC2C1=O)NCCc1ccc(F)cc1 (stereo not drawn)
4. COc1ccc(NC(=O)CSc2nc(N)c(-c3ccccc3)c(=O)[nH]2)cc1
5. COC(=O)c1ccc(NC(=O)CN2CCN(c3ccc(Cl)cc3)CC2)cc1

["> 35.9 µM (inactive)", "8.57 µM", "> 35.9 µM (inactive)", "1.64 µM", "> 35.9 µM (inactive)"]

Dear colleague, could you send me IC50 for each of the items below? Thanks.
1. O=C(COc1ccc2c3c(c(=O)oc2c1)CCC3)NCc1ccncc1
2. O=c1[nH]c(Nc2ccc3c(c2)OCCO3)nnc1Cc1ccccc1
3. CCOc1ccc(NC(=O)CSc2nncc(=O)n2N)cc1
4. COc1ccc(NC(=O)COC(=O)c2cc(S(=O)(=O)N3CCCC3)ccc2O)cc1
5. COc1ccc(CCNC(=O)CSc2nn3c(=O)c(C)nnc3s2)cc1OC
6. O=C(OCC(=O)N1CCN(C(=O)COC(=O)c2ccc(O)cc2O)CC1)c1ccc(O)cc1O

> 35.9 µM (inactive)
2.27 µM
> 12 µM (inactive)
> 35.9 µM (inactive)
1.37 µM
1.37 µM

# credit: PubChem BioAssay AID651976
